tested on: MB453 cells; assay: Inhibition of cell proliferation, CyQUANT Direct, MB453; type: cell-based, human; details: Homo sapiens; MB453 triple negative breast cancer cells, 72-hour; read-out: MB 453 proliferation calculated IC50
pIC50: −log10 of the molar value.
pIC50 listing for selected compounds.

# input Sample `N#Cc1ccc2c(-c3nc(N[C@H]4CN[C@H](CO)C4)ncc3C(F)(F)F)c[nH]c2c1` — what was its pIC50?
# output 5.70 to 6.30

# input Sample `CC(=O)N[C@H]1CCC[C@@H]1Nc1ncc(C(F)(F)F)c(-c2c[nH]c3cc(C#N)ccc23)n1` — what was its pIC50?
# output < 5.70

# input Sample `Cc1noc(C)c1-c1ccc2c(-c3nc(N[C@H]4CCC[C@@H]4NCCF)ncc3C(F)(F)F)c[nH]c2n1` — what was its pIC50?
# output 6.30 to 7.00

# input Sample `N#Cc1ccc2c(-c3nc(NC[C@@H]4COCCN4)ncc3C(F)(F)F)c[nH]c2c1` — what was its pIC50?
# output < 5.70

# input Sample `Cc1noc(C)c1-c1ccc2c(-c3nc(N[C@H]4C[C@H]5CC[C@@H]4N5)ncc3C(F)(F)F)c[nH]c2n1` — what was its pIC50?
# output 6.30 to 7.00

====

biological target: CDK7/Cyclin H/MAT1 complex (Homo sapiens); assay: CDK7 kinase inhibition assay (Caliper/LabChip EZ Reader)
Sequence (P50613 whole entry): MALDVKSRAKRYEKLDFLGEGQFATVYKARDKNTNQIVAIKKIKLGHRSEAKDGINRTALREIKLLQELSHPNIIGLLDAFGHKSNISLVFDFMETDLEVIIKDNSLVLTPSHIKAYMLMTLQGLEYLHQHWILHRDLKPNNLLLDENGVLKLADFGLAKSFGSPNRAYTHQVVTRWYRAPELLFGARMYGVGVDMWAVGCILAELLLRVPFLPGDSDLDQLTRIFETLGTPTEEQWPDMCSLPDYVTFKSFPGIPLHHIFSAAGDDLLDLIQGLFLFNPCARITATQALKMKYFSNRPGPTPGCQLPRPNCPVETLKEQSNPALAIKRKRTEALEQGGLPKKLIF
Sequence (P51946 whole entry partner): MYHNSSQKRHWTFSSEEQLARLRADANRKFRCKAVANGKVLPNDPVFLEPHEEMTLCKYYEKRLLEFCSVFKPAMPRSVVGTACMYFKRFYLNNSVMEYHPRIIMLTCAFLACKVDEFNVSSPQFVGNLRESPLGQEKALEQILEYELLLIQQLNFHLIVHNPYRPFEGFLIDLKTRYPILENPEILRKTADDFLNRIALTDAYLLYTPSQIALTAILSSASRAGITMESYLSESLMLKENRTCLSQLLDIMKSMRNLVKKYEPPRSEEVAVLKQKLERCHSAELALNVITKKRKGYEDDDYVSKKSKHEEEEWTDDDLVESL
Sequence (P51948 whole entry partner): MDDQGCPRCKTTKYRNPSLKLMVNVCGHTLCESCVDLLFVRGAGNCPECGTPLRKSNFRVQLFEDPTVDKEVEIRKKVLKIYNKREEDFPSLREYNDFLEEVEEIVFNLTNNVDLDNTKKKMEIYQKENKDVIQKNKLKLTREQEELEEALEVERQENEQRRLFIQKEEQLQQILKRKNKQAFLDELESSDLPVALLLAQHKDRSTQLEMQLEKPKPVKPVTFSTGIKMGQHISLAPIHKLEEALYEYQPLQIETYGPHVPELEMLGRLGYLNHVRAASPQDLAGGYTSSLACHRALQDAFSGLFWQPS
pIC50: −log10 of the molar value.
endpointLabel: pIC50

compound: Cc1noc(C)c1-c1ccc2c(-c3nc(N[C@H]4CCC[C@@H]4NCCF)ncc3C(F)(F)F)c[nH]c2n1
pIC50: > 7.52
--
compound: CP(C)(=O)c1c(C#N)ccc2c(-c3nc(N[C@H]4CCC[C@@H]4N)ncc3C(F)(F)F)c[nH]c12
pIC50: > 7.52
--
compound: CCN[C@H]1CCC[C@@H]1Nc1ncc(C(F)(F)F)c(-c2c[nH]c3nc(-c4c(C)noc4C)ccc23)n1
pIC50: > 7.52
--
compound: Cc1noc(C)c1-c1ccc2c(-c3nc(N[C@H]4CCC[C@@H]4N)ncc3C(F)(F)F)n[nH]c2n1
pIC50: > 7.52
--
compound: COCCN[C@H]1CC[C@@H]1Nc1ncc(C(F)(F)F)c(-c2c[nH]c3cc(C#N)ccc23)n1
pIC50: 7.00 to 7.52

# input Sample `N#Cc1ccc2c(-c3nc(N[C@H]4C[C@H]5CC[C@@H]4N5)ncc3C(F)(F)F)c[nH]c2c1` — what was its pIC50?
# output > 7.52

# input Sample `C[C@@H]1C[C@H](Nc2ncc(C(F)(F)F)c(-c3c[nH]c4cc(C#N)ccc34)n2)CN1` — what was its pIC50?
# output 7.00 to 7.52

# input Sample `CCN[C@H]1CCC[C@@H]1Nc1ncc(C(F)(F)F)c(-c2c[nH]c3cc(C#N)ccc23)n1` — what was its pIC50?
# output > 7.52

# input Sample `N#Cc1ccc2c(-c3nc(N[C@@H]4CC[C@H]4N4CCCC4)ncc3C(F)(F)F)c[nH]c2c1` — what was its pIC50?
# output 6.30 to 7.00

# input Sample N#Cc1ccc2c(-c3nc(N[C@@H]4C[C@@H]5CCC4N5)ncc3C(F)(F)F)c[nH]c2c1 (racemic) — what was its pIC50?
# output > 7.52

# input Sample N#Cc1ccc2c(-c3nc(N[C@@H]4CNC[C@@H]4O)ncc3C(F)(F)F)c[nH]c2c1 (relative stereo) — what was its pIC50?
# output 6.30 to 7.00

# input Sample `Cc1noc(C)c1-c1ccc2c(-c3nc(N[C@H]4CCC[C@@H]4N4CC[C@@H](F)C4)ncc3C(F)(F)F)c[nH]c2n1` — what was its pIC50?
# output > 7.52

# input Sample `N#Cc1ccc2c(-c3nc(N[C@H]4CC[C@@H]4N4CCOCC4)ncc3C(F)(F)F)c[nH]c2c1` — what was its pIC50?
# output 6.30 to 7.00

# input Sample `COCCN[C@@H]1CC[C@H]1Nc1ncc(C(F)(F)F)c(-c2c[nH]c3cc(C#N)ccc23)n1` — what was its pIC50?
# output < 6.30
